This section presents binders with their documented Kd values.
# TESTED_ON: T1, recombinant human MCL-1ΔNΔC (amino acids 172-320) (human, UniProt Q07820 172-320)
# T1 construct: also called rMCL-1; MCL-1NC
# MEASUREMENT_DESCRIPTION: FPA, FITC-SAHB against MCL-1ΔNΔC
# Method: For direct binding experiments, dissociation constants (KD) were calculated by nonlinear regression analysis of dose-response curves using Prism software (Graphpad). For competition experiments, Ki values were determined by nonlinear regression analysis of dose-response curves using a one-site competition model. […]
Bridges are numbered along the chain shown (N, C = ends). Where no end group is shown, it is not given here. [ ]: non-standard residue; d: D form. The star is where a group is joined. FITC = O=C1OC2(c3ccc(O)cc3Oc3cc(O)ccc32)c2ccc(NC(=S)*)cc21; S5 = C=CCCC[C@](C)(N)C(=O)O; Nle = CCCC[C@H](N)C(=O)O

Some binders with known Kd results, for comparison:
{FITC}-QWAREIGAQLR[S5][Nle]AD[S5]LNAQY (staple 12-16, domain: BH3) [PUMA SAHB]    < 50 nM
KALETLR[S5]VGD[S5]VQRNHETAF (staple 8-12; also: N-terminal FITC or acetyl depending on assay, domain: BH3; also called FITC-MCL-1 SAHBA) [MCL-1 SAHBA (stapled MCL-1 BH3 helix, parental)]    < 50 nM

Which Kd value belongs to {FITC}-DIIRNIARHLA[S5]VGD[S5][Nle]DRSIRR (staple 12-16, domain: BH3) [BID SAHB] ?
< 50 nM
